Give measured MIC for each item. Keep answers brief.
- Tested on: neisseria catarrhalis
- TEST_METHOD_NOTES: agar serial dilution test, minimum inhibitory concentration
- Format: cell-based
- TEST_SETTINGS: NE CA strain 8193, read-out: Minimum Inhibitory Concentration
One number for each entry, in µg/mL.

CC(=O)OCC1=C(C(=O)O)N2C(=O)[C@@H](NC(=O)CSC(=NC#N)SCc3cccc(Cl)c3)[C@H]2SC1 [Example 16]; 125

List the reported MIC of each compound below.
1. CCOC(=O)CSC(SCC(=O)N[C@@H]1C(=O)N2C(C(=O)O)=C(COC(C)=O)CS[C@H]12)=C(C#N)C(N)=O [Example 4]
2. CSC(=NC#N)SCC(=O)N[C@@H]1C(=O)N2C(C(=O)O)=C(COC(C)=O)CS[C@H]12 [Example 5]
3. C#CCSC(=NC#N)SCC(=O)N[C@@H]1C(=O)N2C(C(=O)O)=C(COC(C)=O)CS[C@H]12 [Example 17]
4. CC(=O)OCC1=C(C(=O)O)N2C(=O)[C@@H](NC(=O)CSC(=NC#N)SCc3ccccc3)[C@H]2SC1 [Example 10]

[3.9, 250, 125, 62.5]

List the reported MIC of each compound below.
1. C=CCSC(=NC#N)SCC(=O)N[C@@H]1C(=O)N2C(C(=O)O)=C(COC(C)=O)CS[C@H]12 [Example 19]
2. CC(=O)OCC1=C(C(=O)O)N2C(=O)[C@@H](NC(=O)CSC(=NC#N)SCC#N)[C@H]2SC1 [Example 7]

[250, 31.3]
